Each record here notes measured kcat.
Substrate: N[C@@H](CC(=O)O)C(=O)O
Experiment: purified protein
Conditions: co-substrate α-ketoglutarate (fixed, 0.1563–1.25 mM range), 16 µM PLP, 5 mM NAD+, 100 mM potassium phosphate pH 8, 37 °C
Please respond with the number in s⁻¹ and leave the unit unwritten.

INSERT INTO assay_data (protein, value_measured) VALUES
  ('E. coli aspartate aminotransferase (AAT) (Escherichia coli K-12; K37F/N64Y/T43I) (protein, full-length, N-terminal His-tag, expressed in E. coli BL21-Gold (DE3), Ni-NTA purified; 90 kDa homodimer, PLP-dependent) MFENITAAPADPILGLADLFRADERPGKINLGIGVYFDETGKIPVLTSVKKAEQYLLENETTKYYLGIDGIPEFGRCTQELLFGKGSALINDKRARTAQTPGGTGALRVAADFLAKNTSVKRVWVSNPSWPNHKSVFNSAGLEVREYAYYDAENHTLDFDALINSLNEAQAGDVVLFHGCCHNPTGIDPTLEQWQTLAQLSVEKGWLPLFDFAYQGFARGLEEDAEGLRAFAAMHKELIVASSYSKNFGLYNERVGACTLVAADSETVDRAFSQMKAAIRANYSNPPAHGASVVATILSNDALRAIWEQELTDMRQRIQRMRQLFVNTLQEKGANRDFSFIIKQNGMFSFSGLTKEQVLRLREEFGVYAVASGRVNVAGMTPDNMAPLCEAIVAVL', 0.263);

// switching to the query protein
Give the measured kcat of E. coli aspartate aminotransferase (AAT) (Escherichia coli K-12; K37Y/N285S/N64L/T104S/T43I/V35L) (protein, full-length, N-terminal His-tag, expressed in E. coli BL21-Gold (DE3), Ni-NTA purified; 90 kDa homodimer, PLP-dependent) MFENITAAPADPILGLADLFRADERPGKINLGIGLYYDETGKIPVLTSVKKAEQYLLENETTKLYLGIDGIPEFGRCTQELLFGKGSALINDKRARTAQTPGGSGALRVAADFLAKNTSVKRVWVSNPSWPNHKSVFNSAGLEVREYAYYDAENHTLDFDALINSLNEAQAGDVVLFHGCCHNPTGIDPTLEQWQTLAQLSVEKGWLPLFDFAYQGFARGLEEDAEGLRAFAAMHKELIVASSYSKNFGLYNERVGACTLVAADSETVDRAFSQMKAAIRANYSSPPAHGASVVATILSNDALRAIWEQELTDMRQRIQRMRQLFVNTLQEKGANRDFSFIIKQNGMFSFSGLTKEQVLRLREEFGVYAVASGRVNVAGMTPDNMAPLCEAIVAVL .
1.32
